Values compiled from paper PMC9090415.

SYSTEM NAME: P. falciparum apicoplast DNA polymerase (Pf-apPOL) (Plasmodium falciparum, UniProt Q8ILY1)
Sequence (Q8ILY1 entry or part of it): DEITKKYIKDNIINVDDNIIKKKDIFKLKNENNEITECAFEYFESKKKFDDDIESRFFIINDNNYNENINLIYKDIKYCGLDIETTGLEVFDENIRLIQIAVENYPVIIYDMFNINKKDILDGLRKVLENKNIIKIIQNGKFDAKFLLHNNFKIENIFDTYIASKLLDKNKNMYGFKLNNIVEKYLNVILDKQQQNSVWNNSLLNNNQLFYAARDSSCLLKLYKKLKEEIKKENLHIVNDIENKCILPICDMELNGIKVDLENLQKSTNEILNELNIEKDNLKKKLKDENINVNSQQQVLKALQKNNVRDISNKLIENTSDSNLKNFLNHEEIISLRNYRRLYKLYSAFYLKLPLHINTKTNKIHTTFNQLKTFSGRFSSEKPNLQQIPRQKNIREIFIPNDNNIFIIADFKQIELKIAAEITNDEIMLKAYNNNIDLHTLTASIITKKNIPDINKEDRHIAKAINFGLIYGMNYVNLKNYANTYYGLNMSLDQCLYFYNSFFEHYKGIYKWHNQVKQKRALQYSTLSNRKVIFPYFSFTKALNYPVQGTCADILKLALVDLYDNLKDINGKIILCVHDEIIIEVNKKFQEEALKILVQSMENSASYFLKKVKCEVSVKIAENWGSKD
ASSAY SUMMARY: Fluorescence-based high-throughput DNA polymerase assay (molecular beacon), primary screen and dose-response
Format: biochemical
CONDITIONS: DRC-2; 5'; concentration 10
Entries and their % inhibition Apo pol 5' values follow.
Report the figure in % without appending any unit label.

Guide cases for % inhibition Apo pol 5', answers given:
INSERT INTO results (compound, unit_descriptor, value_measured) VALUES
  ('CCCCSc1nnc2c(n1)OC(c1ccc([N+](=O)[O-])o1)Nc1ccccc1-2 (stereo not shown)', '%', 51),
  ('Cc1ccc(C)n1-c1ccc(C(=O)NNC(=O)c2ccc3nccnc3c2)cc1', '%', 25),
  ('OC(C#Cc1ccccc1)c1ccco1 (stereo not shown)', '%', 39),
  ('O=c1[nH]c2ccc([N+](=O)[O-])cc2c(-c2ccccc2)c1Sc1nc2ccccc2o1', '%', 26);

Supply measured % inhibition Apo pol 5' of "Cc1cccc(C2=N/C(=C\c3ccc([N+](=O)[O-])o3)C(=O)O2)c1" in your reply. 37
